- Tested on: bovine spermatozoa
- ASSAY_OVERVIEW: Cytotoxicity assay with bovine spermatozoa (CASA motility)
- Type: cell-based
- CONDITION_INFO: 50 µM, 1 h at 37 °C, relative to control sperm incubated with vehicle
Property: Sperm Motility RTC (relative to control); scope: individual compounds
I'd appreciate a reply containing only the number, no unit.

>  <COMPOUND>
C=CCNC(=S)N/N=C/c1ccc2c(c1)[n+]([O-])c(-c1ccccc1)c(C(=O)Nc1ccccc1)[n+]2[O-] [Compound C23]

>  <Sperm Motility RTC (relative to control)>
82

$$$$
>  <COMPOUND>
CSc1nc2cc(Cl)c(Oc3cccc(Cl)c3Cl)cc2[nH]1 [TCBZ, triclabendazole, reference compound]

>  <Sperm Motility RTC (relative to control)>
88

$$$$
>  <COMPOUND>
C=CCN1C(=O)CS/C1=N/N=C/c1ccc2c(c1)[n+]([O-])c(-c1ccccc1)c(C(=O)Nc1ccccc1)[n+]2[O-] [Compound C24]

>  <Sperm Motility RTC (relative to control)>
82

$$$$
>  <COMPOUND>
CCOC(=O)c1c(-c2ccccc2)[n+]([O-])c2ccc(CN3CCN(C/C=C/c4ccccc4)CC3)cc2[n+]1[O-] [Compound C18]

>  <Sperm Motility RTC (relative to control)>
82

$$$$

# ---- query compound ----
Record C=CCNC(=S)N/N=C/c1ccc2c(c1)[n+]([O-])c(C(=O)OCC)c(-c1ccccc1)[n+]2[O-] [Compound C17] , field Sperm Motility RTC (relative to control): 81

* * *

- Tested on: FhCL3
- ASSAY_OVERVIEW: FhCL3 inhibition screening, IC50 and slow-binding (fluorogenic substrate Tos-GPR-AMC)
- Assay type: biochemical, Fasciola hepatica
- CONDITION_INFO: 10 µM compound, 20 min preincubation, relative to enzyme alone; SD less than 10%
Property: %Inh FhCL3; scope: individual compounds
Note: state the figure and append the unit.

Example entries begin here.
>  <COMPOUND_STRUCTURE_STRING>
Cc1c(Sc2ccccc2)[n+]([O-])c2cc(Cl)c(Cl)cc2[n+]1[O-]

>  <%Inh FhCL3>
22%

$$$$
>  <COMPOUND_STRUCTURE_STRING>
CCCCNC(=O)N/N=C/c1ccc2c(c1)[n+]([O-])c(C#N)c(N)[n+]2[O-]

>  <%Inh FhCL3>
27%

$$$$
>  <COMPOUND_STRUCTURE_STRING>
Cc1c(C(=O)NCc2ccccc2)[n+]([O-])c2ccccc2[n+]1[O-]

>  <%Inh FhCL3>
40%

$$$$
>  <COMPOUND_STRUCTURE_STRING>
N#Cc1c(N)[n+]([O-])c2ccccc2[n+]1[O-]

>  <%Inh FhCL3>
0%

$$$$

Log: FhCL3, compound CCOC(=O)c1c(-c2ccccc2)[n+]([O-])c2ccc(CN3CCN(C/C=C/c4ccccc4)CC3)cc2[n+]1[O-] , %Inh FhCL3 = 61%

Log: FhCL3, compound CCN(C/C=C/c1ccccc1)c1ccc2c(c1)[n+]([O-])c(C(=O)Nc1ccccc1)c(C)[n+]2[O-] , %Inh FhCL3 = 54%

Log: FhCL3, compound CCN(C/C=C/c1ccccc1)c1ccc2c(c1)[n+]([O-])c(C#N)c(N)[n+]2[O-] , %Inh FhCL3 = 45%

Log: FhCL3, compound O=C(c1ccccc1)c1c(C(F)(F)F)[n+]([O-])c2cc(F)c(F)cc2[n+]1[O-] , %Inh FhCL3 = 38%

* * *

- TESTED_SYSTEM: FhCL1 (Fasciola hepatica, UniProt Q7JNQ9)
- Construct: made in house; host or cells: Hansenula polymorpha (yeast)
- Sequence (Q7JNQ9 entry or part of it): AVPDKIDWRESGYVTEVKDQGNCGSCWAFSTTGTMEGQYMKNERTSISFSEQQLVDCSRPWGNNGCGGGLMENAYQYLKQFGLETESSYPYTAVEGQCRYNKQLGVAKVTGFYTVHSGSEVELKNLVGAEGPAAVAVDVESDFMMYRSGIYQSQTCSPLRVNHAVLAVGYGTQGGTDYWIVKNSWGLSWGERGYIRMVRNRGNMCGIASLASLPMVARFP
- ASSAY_OVERVIEW: FhCL1 inhibition screening, IC50 and slow-binding (fluorogenic substrate Z-VLK-AMC)
- Assay type: biochemical
- CONDITION_INFO: read-out: %Inh FhCL1, 10 µM compound, 20 min preincubation, relative to enzyme alone; SD less than 10%
Property: inhibition at 10 µM; scope: individual molecules
Express it in %; write the number only.

Record COC(=O)N/N=C/c1ccc2c(c1)[n+]([O-])c(C)c(C)[n+]2[O-] , field inhibition at 10 µM: 13

Record CCOC(=O)c1c(C)[n+]([O-])c2ccccc2[n+]1[O-] , field inhibition at 10 µM: 28

Record O=Cc1c[n+]([O-])c2ccccc2[n+]1[O-] , field inhibition at 10 µM: 21

Record CCN(C/C=C/c1ccccc1)c1ccc2c(c1)[n+]([O-])c(C(=O)Nc1ccccc1)c(C)[n+]2[O-] , field inhibition at 10 µM: 47

Record O=C(c1ccccc1)c1c(C(F)(F)F)[n+]([O-])c2ccccc2[n+]1[O-] , field inhibition at 10 µM: 38

Record O=C(c1ccccc1)c1c(C(F)(F)F)[n+]([O-])c2cc(F)c(F)cc2[n+]1[O-] , field inhibition at 10 µM: 0

Record Cc1c(C(=O)NCc2ccccc2)[n+]([O-])c2ccccc2[n+]1[O-] , field inhibition at 10 µM: 47

Record Cc1c(C)[n+]([O-])c2cc(/C=N/NC(=O)NCCc3ccccc3)ccc2[n+]1[O-] , field inhibition at 10 µM: 56

* * *

- TESTED_SYSTEM: UniProtKB P07711
- Sequence (P07711 114-333): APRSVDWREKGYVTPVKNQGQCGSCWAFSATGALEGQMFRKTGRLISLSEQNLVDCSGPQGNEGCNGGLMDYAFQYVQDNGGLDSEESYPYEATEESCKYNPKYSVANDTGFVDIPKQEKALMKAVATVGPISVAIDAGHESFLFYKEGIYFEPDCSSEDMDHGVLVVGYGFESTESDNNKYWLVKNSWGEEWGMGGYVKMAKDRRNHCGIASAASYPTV
MEASUREMENT_NAME: IC50 (µM)
Express it in µM; write the number only.

Log: UniProtKB P07711, compound C=CCNC(=S)N/N=C/c1ccc2c(c1)[n+]([O-])c(C(=O)OCC)c(-c1ccccc1)[n+]2[O-] [Compound C17] , IC50 = 13

* * *

- TESTED_SYSTEM: FhCL1 (Fasciola hepatica)
- Construct: made in house; host or cells: Hansenula polymorpha (yeast)
- ASSAY_OVERVIEW: FhCL1 inhibition screening, IC50 and slow-binding (fluorogenic substrate Z-VLK-AMC)
- Format: biochemical
- CONDITION_INFO: read-out: %Inh FhCL1, 10 µM compound, 20 min preincubation, relative to enzyme alone; SD less than 10%
MEASUREMENT_NAME: inhibition at 10 µM

>  <COMPOUND>
C=CCN1C(=O)CS/C1=N/N=C/c1ccc2c(c1)[n+]([O-])c(-c1ccccc1)c(C(=O)Nc1ccccc1)[n+]2[O-] [Compound C24]

>  <TESTED_SYSTEM>
FhCL1 (Fasciola hepatica)

>  <inhibition at 10 µM>
≥ 80%

$$$$
>  <COMPOUND>
C=CCNC(=S)N/N=C/c1ccc2c(c1)[n+]([O-])c(C(=O)Nc1ccccc1)c(C)[n+]2[O-] [Compound C20]

>  <TESTED_SYSTEM>
FhCL1 (Fasciola hepatica)

>  <inhibition at 10 µM>
72%

$$$$
>  <COMPOUND>
CCN(C/C=C/c1ccccc1)c1ccc2c(c1)[n+]([O-])c(C#N)c(N)[n+]2[O-] [Compound C8]

>  <TESTED_SYSTEM>
FhCL1 (Fasciola hepatica)

>  <inhibition at 10 µM>
24%

$$$$

Record C=CCn1c(-c2ccc(Cl)cc2)csc1=NN=Cc1ccc2c(c1)[n+]([O-])c(C)c(C)[n+]2[O-] [Compound C13] , field inhibition at 10 µM: 34%

Record C=CCNC(=S)N/N=C/c1ccc2c(c1)[n+]([O-])c(C(=O)OCC)c(-c1ccccc1)[n+]2[O-] [Compound C17] , field inhibition at 10 µM: ≥ 80%

* * *

- TESTED_SYSTEM: FhCL1 (Fasciola hepatica, UniProt Q7JNQ9)
- Construct: made in house; host or cells: Hansenula polymorpha (yeast)
- ASSAY_OVERVIEW: FhCL1 inhibition screening, IC50 and slow-binding (fluorogenic substrate Z-VLK-AMC)
- Assay type: biochemical
- CONDITION_INFO: read-out: %Inh FhCL1, 10 µM compound, 20 min preincubation, relative to enzyme alone; SD less than 10%
MEASUREMENT_NAME: inhibition at 10 µM (%)
Express it in %; write the number only.

Example entries begin here.
>  <MOLECULE>
N#Cc1c(N)[n+]([O-])c2ccccc2[n+]1[O-] [Compound C3]

>  <MEASUREMENT_NAME>
inhibition at 10 µM

>  <VALUE_REPORTED>
30

$$$$
>  <MOLECULE>
N#Cc1c(N)[n+]([O-])c2cc(Cl)c(Cl)cc2[n+]1[O-] [Compound C9]

>  <MEASUREMENT_NAME>
inhibition at 10 µM

>  <VALUE_REPORTED>
15

$$$$
>  <MOLECULE>
Cc1c(C(=O)Nc2ccccc2)[n+]([O-])c2cc(CN3CCN(C/C=C/c4ccccc4)CC3)ccc2[n+]1[O-] [Compound C22]

>  <MEASUREMENT_NAME>
inhibition at 10 µM

>  <VALUE_REPORTED>
23

$$$$

# ---- query molecule ----
Record C=CCNC(=S)N/N=C/c1ccc2c(c1)[n+]([O-])c(C#N)c(N)[n+]2[O-] [Compound C5] , field inhibition at 10 µM: 20
